- Test Target: Human Leukocyte Elastase (HLE) (Homo sapiens)
- Construct: The PMN lysates were prepared by isolating human neutrophils from whole blood; from tissue; host or cells: human neutrophils (PMN) isolated from whole blood, lysed by sonication in PBS
- Sequence (P08246 30-267): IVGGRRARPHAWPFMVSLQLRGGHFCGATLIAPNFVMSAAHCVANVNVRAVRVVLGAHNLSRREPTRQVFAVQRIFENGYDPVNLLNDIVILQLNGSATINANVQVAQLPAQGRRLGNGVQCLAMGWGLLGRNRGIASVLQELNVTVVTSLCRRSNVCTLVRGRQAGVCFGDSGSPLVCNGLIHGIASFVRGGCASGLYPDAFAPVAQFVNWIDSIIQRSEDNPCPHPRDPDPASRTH
- Assay Explanation: HLE time-dependent inactivation assay, PMN cell lysate source of HLE
- Type: biochemical
- Experimental Parameters: 3 nM, inhibitor 26.5 nM, substrate 1 mM
- Protocol: As exemplified in Table 1, the Examples 1-6 of this application were determined to be potent, mechanism-based inactivators of Human Leukocyte Elastase (HLE) in two different in vitro time-dependent incubation assays. […] Prepare the enzyme in TES Buffer (0.045M TES (N-tris[hydroxymethyl]methyl-2-mino-ethanesulfonic acid), 0.45 M NaCl, pH 7.5.). […] The neutrophils were lysed in PBS with sonciation and the concentration of active enzyme was determined by utilizing a standard curve of purified enzyme. […]
# reported kinact/KI; entries follow
Parameter Measured: kinact/KI (M⁻¹ s⁻¹)

> print(dat)
                           structure.string                               test.target  parameter.measured  value.unit  reading
1  CCC[C@@H](NC(=O)N1C(=O)C(CC)(CC)[C@@H]1Oc1ccc(C(=O)N(C)CCN(C)C)cc1)c1ccc(C(F)(F)F)cc1  Human Leukocyte Elastase (HLE) (Homo sapiens)           kinact/KI     M⁻¹ s⁻¹   427000
2  CCC[C@@H](NC(=O)N1C(=O)C(CC)(CC)[C@@H]1Oc1ccc(C(=O)N(CC)CCN(C)C)cc1)c1ccc(C(F)(F)F)cc1  Human Leukocyte Elastase (HLE) (Homo sapiens)           kinact/KI     M⁻¹ s⁻¹   952000
3  CCC[C@@H](NC(=O)N1C(=O)C(CC)(CC)[C@@H]1Oc1ccc(C(=O)N(CC)CCN(CC)CC)cc1)c1ccc(C(F)(F)F)cc1  Human Leukocyte Elastase (HLE) (Homo sapiens)           kinact/KI     M⁻¹ s⁻¹   375000
4  CCC[C@@H](NC(=O)N1C(=O)C(CC)(CC)[C@@H]1Oc1ccc(C(=O)N(CC)CCN(C)C)cc1)c1ccc(OC(F)(F)F)cc1  Human Leukocyte Elastase (HLE) (Homo sapiens)           kinact/KI     M⁻¹ s⁻¹   809000

---

# reported half-life; entries follow
- Assay Explanation: Rat pharmacokinetics
- Type: in vivo, Sprague-Dawley rats
- Experimental Parameters: Sprague-Dawley, in vivo, iv, 1 mg/kg
Parameter Measured: half-life (h)

> print(dat)
                                   compound  parameter.measured  reading
1  CCC[C@@H](NC(=O)N1C(=O)C(CC)(CC)[C@@H]1Oc1ccc(C(=O)N(CC)CCN(C)C)cc1)c1ccc(OC(F)(F)F)cc1 [Example 1]           half-life      3.1
2  CCC[C@@H](NC(=O)N1C(=O)C(CC)(CC)[C@@H]1Oc1ccc(C(=O)N(C)CCN(C)C)cc1)c1ccc(OC)cc1 [Compound #290, reference compound]           half-life        2

---

- Test Target: CYP2D6 (Homo sapiens, UniProt P10635)
- Construct: host or cells: human liver microsomes or recombinant P450 microsomes
- Sequence (P10635 whole entry): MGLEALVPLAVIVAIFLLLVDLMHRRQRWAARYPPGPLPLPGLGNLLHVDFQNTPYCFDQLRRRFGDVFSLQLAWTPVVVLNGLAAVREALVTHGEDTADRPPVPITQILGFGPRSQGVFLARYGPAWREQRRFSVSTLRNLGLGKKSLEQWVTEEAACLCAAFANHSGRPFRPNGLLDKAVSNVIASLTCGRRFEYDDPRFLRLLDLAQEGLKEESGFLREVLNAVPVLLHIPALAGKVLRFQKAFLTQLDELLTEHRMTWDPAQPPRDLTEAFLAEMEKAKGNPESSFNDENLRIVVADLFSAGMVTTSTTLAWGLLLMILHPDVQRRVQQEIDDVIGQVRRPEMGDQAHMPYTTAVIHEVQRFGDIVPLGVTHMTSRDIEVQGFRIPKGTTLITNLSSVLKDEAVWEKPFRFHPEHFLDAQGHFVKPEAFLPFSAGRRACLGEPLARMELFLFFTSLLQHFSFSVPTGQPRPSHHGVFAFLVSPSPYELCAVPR
- Assay Explanation: CYP-P450 reversible inhibition, 2D6
- Type: in vitro ADME
- Experimental Parameters: probe fluorogenic probe (not named); human liver microsomes or recombinant P450 microsomes; fluorescent probe
- Experimental: This assay measured the reversible inhibition of the test compounds against three cytochrome P450 isozymes (CYP-P450 3A4, 2C9 and 2D6) in an automated screening formate. […] The activity of P450 enzyme was evaluated in the presence of 0.137, 0.273, 0.547, 1.094, 2.188, 4.375, 8.750, 17.5, 35.0 and 70.0 μM concentrations of the test compounds. Inhibition curves were generated and IC50 values were calculated for each tested compound using standard techniques.
Parameter Measured: IC50

> print(dat)
                                   molecule  reading
1  CCC[C@@H](NC(=O)N1C(=O)C(CC)(CC)[C@@H]1Oc1ccc(C(=O)N(C)CCN(C)C)cc1)c1ccc(OC)cc1 [Compound #290, reference compound]   > 8 µM
2  CCC[C@@H](NC(=O)N1C(=O)C(CC)(CC)[C@@H]1Oc1ccc(C(=O)N(CC)CCN(C)C)cc1)c1ccc(OC(F)(F)F)cc1   > 8 µM

---

- Test Target: CYP-P450 2D6 (Homo sapiens, UniProt P10635)
- Assay Explanation: CYP-P450 reversible inhibition, 2D6
- Experimental Parameters: human liver microsomes or recombinant P450 microsomes; fluorescent probe
pIC50: −log10 of the molar value.
# reported pIC50; entries follow
Parameter Measured: pIC50

> print(dat)
                                   compound                               test.target  reading
1  CCC[C@@H](NC(=O)N1C(=O)C(CC)(CC)[C@@H]1Oc1ccc(C(=O)N(CC)CCN(C)C)cc1)c1ccc(OC(F)(F)F)cc1  CYP-P450 2D6 (Homo sapiens, UniProt P10635)     4.43
2  CCC[C@@H](NC(=O)N1C(=O)C(CC)(CC)[C@@H]1Oc1ccc(C(=O)N(C)CCN(C)C)cc1)c1ccc(OC)cc1 [Compound #290, reference compound]  CYP-P450 2D6 (Homo sapiens, UniProt P10635)     4.41
3  CCC[C@@H](NC(=O)N1C(=O)C(CC)(CC)[C@@H]1Oc1ccc(C(=O)N(CC)CCN(C)C)cc1)c1ccc(C(F)(F)F)cc1  CYP-P450 2D6 (Homo sapiens, UniProt P10635)     4.39

---

- Test Target: CYP3A4 (Homo sapiens, UniProt P08684)
- Assay Explanation: CYP-P450 reversible inhibition, 3A4
- Type: in vitro ADME
- Design: host or cells: human liver microsomes or recombinant P450 microsomes
- Experimental Parameters: probe fluorogenic probe (not named); human liver microsomes or recombinant P450 microsomes; fluorescent probe
Parameter Measured: IC50

> print(dat)
                                   compound  reading
1  CCC[C@@H](NC(=O)N1C(=O)C(CC)(CC)[C@@H]1Oc1ccc(C(=O)N(CC)CCN(C)C)cc1)c1ccc(OC(F)(F)F)cc1   > 8 µM
2  CCC[C@@H](NC(=O)N1C(=O)C(CC)(CC)[C@@H]1Oc1ccc(C(=O)N(C)CCN(C)C)cc1)c1ccc(OC)cc1 [Compound #290, reference compound]   > 8 µM

---

- Test Target: CYP-P450 2C9 (Homo sapiens, UniProt P11712)
- Sequence (P11712 whole entry): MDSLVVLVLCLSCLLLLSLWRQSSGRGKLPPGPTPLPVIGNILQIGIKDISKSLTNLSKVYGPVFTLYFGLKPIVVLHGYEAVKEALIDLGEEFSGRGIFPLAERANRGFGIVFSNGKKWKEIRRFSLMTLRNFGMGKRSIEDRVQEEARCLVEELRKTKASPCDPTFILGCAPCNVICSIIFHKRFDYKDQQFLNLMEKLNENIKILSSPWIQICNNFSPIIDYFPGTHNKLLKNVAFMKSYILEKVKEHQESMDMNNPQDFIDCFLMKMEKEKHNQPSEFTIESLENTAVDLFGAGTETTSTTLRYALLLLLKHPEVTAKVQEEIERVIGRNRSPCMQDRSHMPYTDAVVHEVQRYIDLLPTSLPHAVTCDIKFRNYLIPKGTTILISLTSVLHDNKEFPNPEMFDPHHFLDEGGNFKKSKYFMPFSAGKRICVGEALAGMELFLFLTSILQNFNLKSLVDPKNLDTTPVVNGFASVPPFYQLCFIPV
- Assay Explanation: CYP-P450 reversible inhibition, 2C9
- Experimental Parameters: human liver microsomes or recombinant P450 microsomes; fluorescent probe
Parameter Measured: IC50

> print(dat)
                                   compound  reading
1  CCC[C@@H](NC(=O)N1C(=O)C(CC)(CC)[C@@H]1Oc1ccc(C(=O)N(C)CCN(C)C)cc1)c1ccc(OC)cc1 [Compound #290, reference compound]    25 µM
2  CCC[C@@H](NC(=O)N1C(=O)C(CC)(CC)[C@@H]1Oc1ccc(C(=O)N(CC)CCN(C)C)cc1)c1ccc(C(F)(F)F)cc1 [Example 3]   8.1 µM
3  CCC[C@@H](NC(=O)N1C(=O)C(CC)(CC)[C@@H]1Oc1ccc(C(=O)N(CC)CCN(C)C)cc1)c1ccc(OC(F)(F)F)cc1 [Example 1]    17 µM

---

# reported IC50; entries follow
- Test Target: CYP-P450 3A4 (Homo sapiens, UniProt P08684)
- Sequence (P08684 whole entry): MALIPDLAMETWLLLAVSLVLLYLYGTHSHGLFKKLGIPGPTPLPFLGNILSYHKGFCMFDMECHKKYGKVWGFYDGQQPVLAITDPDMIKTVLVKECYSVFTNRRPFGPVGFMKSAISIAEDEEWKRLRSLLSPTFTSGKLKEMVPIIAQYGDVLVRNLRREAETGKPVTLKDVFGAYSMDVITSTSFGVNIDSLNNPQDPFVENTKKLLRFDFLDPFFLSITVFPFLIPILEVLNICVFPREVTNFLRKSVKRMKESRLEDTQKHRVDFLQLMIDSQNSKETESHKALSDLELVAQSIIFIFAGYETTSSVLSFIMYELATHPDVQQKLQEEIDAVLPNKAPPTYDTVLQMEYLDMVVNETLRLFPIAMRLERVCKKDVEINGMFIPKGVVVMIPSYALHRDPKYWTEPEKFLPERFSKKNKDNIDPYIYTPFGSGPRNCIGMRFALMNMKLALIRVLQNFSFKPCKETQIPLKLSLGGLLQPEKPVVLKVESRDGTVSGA
- Assay Explanation: CYP-P450 reversible inhibition, 3A4
- Experimental Parameters: human liver microsomes or recombinant P450 microsomes; fluorescent probe
- Procedure: This assay measured the reversible inhibition of the test compounds against three cytochrome P450 isozymes (CYP-P450 3A4, 2C9 and 2D6) in an automated screening formate. […] The activity of P450 enzyme was evaluated in the presence of 0.137, 0.273, 0.547, 1.094, 2.188, 4.375, 8.750, 17.5, 35.0 and 70.0 μM concentrations of the test compounds. Inhibition curves were generated and IC50 values were calculated for each tested compound using standard techniques.
Parameter Measured: IC50 (µM)

> print(dat)
                                   compound  parameter.measured  reading
1  CCC[C@@H](NC(=O)N1C(=O)C(CC)(CC)[C@@H]1Oc1ccc(C(=O)N(CC)CCN(C)C)cc1)c1ccc(OC(F)(F)F)cc1 [Example 1]                IC50       46
2  CCC[C@@H](NC(=O)N1C(=O)C(CC)(CC)[C@@H]1Oc1ccc(C(=O)N(CC)CCN(C)C)cc1)c1ccc(C(F)(F)F)cc1 [Example 3]                IC50       39
3  CCC[C@@H](NC(=O)N1C(=O)C(CC)(CC)[C@@H]1Oc1ccc(C(=O)N(C)CCN(C)C)cc1)c1ccc(OC)cc1 [Compound #290, reference compound]                IC50       62
